Assay: Inhibition of N-terminal His-Tb-tagged XIAP BIR2-3 (124 to 356) (unknown origin) assessed as activation of caspase-3 measured every 3 mins for 90 mins by fluorescence assay
Parameters: species or system Homo sapiens
Flag rule - IC50 less than 0.02 µM flags yes (1); the remaining entries get no (0).

| compound-string | group-label |
| --- | --- |
| CN[C@@H](C)C(=O)N[C@H](C(=O)N1Cc2cc(NC(=O)C3(C(=O)N[C@H]4C[C@@H](C(=O)N[C@@H]5CCCc6ccccc65)N(C(=O)[C@@H](NC(=O)[C@H](C)NC)C(C)(C)C)C4)CCC3)ccc2C[C@H]1C(=O)N[C@@H]1CCCc2ccccc21)C(C)(C)C | yes (1) |
| CN[C@@H](C)C(=O)N[C@H](C(=O)N1Cc2cc(NC(=O)N[C@H]3C[C@@H](C(=O)N[C@@H]4CCCc5ccccc54)N(C(=O)[C@@H](NC(=O)[C@H](C)NC)C(C)(C)C)C3)ccc2C[C@H]1C(=O)N[C@@H]1CCCc2ccccc21)C(C)(C)C | yes (1) |
| CN[C@@H](C)C(=O)N[C@H](C(=O)N1Cc2cc(NC(=O)[C@H]3C[C@@H](C(=O)N[C@@H]4CCCc5ccccc54)N(C(=O)[C@@H](NC(=O)[C@H](C)NC)C(C)(C)C)C3)ccc2C[C@H]1C(=O)N[C@@H]1CCCc2ccccc21)C(C)(C)C | no (0) |
| CN[C@@H](C)C(=O)N[C@H](C(=O)N1Cc2cc(N[C@H]3C[C@@H](C(=O)N[C@@H]4CCCc5ccccc54)N(C(=O)[C@@H](NC(=O)[C@H](C)NC)C(C)(C)C)C3)ccc2C[C@H]1C(=O)N[C@@H]1CCCc2ccccc21)C(C)(C)C | yes (1) |
| CN[C@@H](C)C(=O)N[C@H](C(=O)N1Cc2cc([C@H]3C[C@@H](C(=O)N[C@@H]4CCCc5ccccc54)N(C(=O)[C@@H](NC(=O)[C@H](C)NC)C(C)(C)C)C3)ccc2C[C@H]1C(=O)N[C@@H]1CCCc2ccccc21)C(C)(C)C | yes (1) |

###

Collected Activity values appear next to each entry.
Test system: Mus musculus
Assay: Toxicity in Balb/C athymic (nu+/nu+) mouse xenografted with human A875 cells assessed as change in body weight at 1 mg/kg, iv administered every 3 days for 6 doses relative to vehicle-treated control
Format: organism-based
Parameters: dose 1 mg/kg, route intravenous
Settings: in vivo

| compound | units-of-measure | Activity |
| --- | --- | --- |
| CN[C@@H](C)C(=O)N[C@H](C(=O)N1Cc2cc(N[C@H]3C[C@@H](C(=O)N[C@@H]4CCCc5ccccc54)N(C(=O)[C@@H](NC(=O)[C@H](C)NC)C(C)(C)C)C3)ccc2C[C@H]1C(=O)N[C@@H]1CCCc2ccccc21)C(C)(C)C | % | 2.1 |
| CN[C@@H](C)C(=O)N[C@H](C(=O)N1Cc2cc(NC(=O)c3ccc(C(=O)N[C@H]4C[C@@H](C(=O)N[C@@H]5CCCc6ccccc65)N(C(=O)[C@@H](NC(=O)[C@H](C)NC)C(C)(C)C)C4)cc3)ccc2C[C@H]1C(=O)N[C@@H]1CCCc2ccccc21)C(C)(C)C | % | -3 |
| CN[C@@H](C)C(=O)N[C@H](C(=O)N1Cc2cc([C@H]3C[C@@H](C(=O)N[C@@H]4CCCc5ccccc54)N(C(=O)[C@@H](NC(=O)[C@H](C)NC)C(C)(C)C)C3)ccc2C[C@H]1C(=O)N[C@@H]1CCCc2ccccc21)C(C)(C)C | % | 4.5 |
| CN[C@@H](C)C(=O)N[C@H](C(=O)N1Cc2cc(C(=O)N[C@H]3C[C@@H](C(=O)N[C@@H]4CCCc5ccccc54)N(C(=O)[C@@H](NC(=O)[C@H](C)NC)C(C)(C)C)C3)ccc2C[C@H]1C(=O)N[C@@H]1CCCc2ccccc21)C(C)(C)C | % | -0.2 |
| CC[C@H](NC(=O)[C@H](C)NC)C(=O)N1C[C@@H](O)C[C@H]1Cc1c(-c2[nH]c3cc(F)ccc3c2C[C@@H]2C[C@H](O)CN2C(=O)[C@H](CC)NC(=O)[C@H](C)NC)[nH]c2cc(F)ccc12 [BIRINAPANT] | % | -1.8 |
